Attribution: the supplement of paper PMC9112550

This listing pairs sequences with measured shrunken log2 fold change.
System: Escherichia coli TOP10;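 further: peptides expressed intracellularly from a pBAD plasmid library in pooled LB shake-flask culture, induced with 0.3% L-arabinose, DNA abundance read by NGS, three biological replicates, DESeq2 with apeglm shrinkage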
Protocol notes: shrunken log2 fold change of peptide-encoding DNA abundance (4.5 h post-induction vs induction); higher = less antimicrobial activity (less host growth inhibition)
Measurement setup: time post-induction: 4.5 h; library: site-saturation at positions 5, 18, 19, 20
Endpoint name: shrunken log2 fold change

| Sequence content | Assay target | Value measured |
| --- | --- | --- |
| RRIRTRPPRLPRPRPRPQPDPRP | Escherichia coli TOP10 | -0.136 |
| RRIRRRPPRLPRPRPRPVKWPRP | Escherichia coli TOP10 | 0.111 |
| RRIRGRPPRLPRPRPRPEAAPRP | Escherichia coli TOP10 | 3.27 |
| RRIRSRPPRLPRPRPRPHCWPRP | Escherichia coli TOP10 | -0.0424 |
| RRIRKRPPRLPRPRPRPEQPPRP | Escherichia coli TOP10 | 0.328 |
| RRIRKRPPRLPRPRPRPNMLPRP | Escherichia coli TOP10 | -0.0107 |
| RRIRKRPPRLPRPRPRPLMWPRP | Escherichia coli TOP10 | 0.284 |
| RRIRPRPPRLPRPRPRPSGGPRP | Escherichia coli TOP10 | 0.191 |
| RRIRNRPPRLPRPRPRPSYIPRP | Escherichia coli TOP10 | -0.637 |
| RRIRKRPPRLPRPRPRPFHFPRP | Escherichia coli TOP10 | -0.0346 |
| RRIRNRPPRLPRPRPRPLQCPRP | Escherichia coli TOP10 | -0.00595 |
| RRIRDRPPRLPRPRPRPPATPRP | Escherichia coli TOP10 | 0.75 |
| RRIRSRPPRLPRPRPRPQFPPRP | Escherichia coli TOP10 | -0.00708 |
| RRIRSRPPRLPRPRPRPGSHPRP | Escherichia coli TOP10 | -0.104 |
| RRIRFRPPRLPRPRPRPLYMPRP | Escherichia coli TOP10 | -0.921 |
| RRIRMRPPRLPRPRPRPCPTPRP | Escherichia coli TOP10 | 0.11 |
| RRIRERPPRLPRPRPRPIRDPRP | Escherichia coli TOP10 | 0.0201 |
| RRIRPRPPRLPRPRPRPMIFPRP | Escherichia coli TOP10 | -0.214 |
| RRIRRRPPRLPRPRPRPNALPRP | Escherichia coli TOP10 | 0.261 |
| RRIRLRPPRLPRPRPRPMNVPRP | Escherichia coli TOP10 | -0.839 |
| RRIRGRPPRLPRPRPRPYKWPRP | Escherichia coli TOP10 | -0.0702 |
| RRIRRRPPRLPRPRPRPVVHPRP | Escherichia coli TOP10 | -0.157 |
| RRIRTRPPRLPRPRPRPMIIPRP | Escherichia coli TOP10 | -0.0854 |
| RRIRMRPPRLPRPRPRPPKLPRP | Escherichia coli TOP10 | 0.343 |
| RRIRSRPPRLPRPRPRPFAFPRP | Escherichia coli TOP10 | -0.0807 |
| RRIRCRPPRLPRPRPRPDNRPRP | Escherichia coli TOP10 | -0.132 |
| RRIRTRPPRLPRPRPRPEQYPRP | Escherichia coli TOP10 | -0.0335 |
| RRIRKRPPRLPRPRPRPKVQPRP | Escherichia coli TOP10 | 0.092 |
| RRIRLRPPRLPRPRPRPVATPRP | Escherichia coli TOP10 | 0.282 |
| RRIRTRPPRLPRPRPRPCHKPRP | Escherichia coli TOP10 | 0.014 |
| RRIRPRPPRLPRPRPRPRTVPRP | Escherichia coli TOP10 | 0.322 |
| RRIRDRPPRLPRPRPRPNYAPRP | Escherichia coli TOP10 | -0.457 |
